molecular target: KMO mouse enzyme (Mus musculus); construct: KMO enzyme prepared at Evotec from mouse liver (4-6 weeks old) via mitochondria isolation; from tissue; host or cells: mouse liver (4-6 weeks old), mitochondria isolation, prepared at Evotec; test: KMO mouse enzyme assay: L-Kynurenine hydroxylation to 3-Hydroxy-Kynurenine monitored by LC/MS (MRM); type: biochemical; conditions: compound at 10 μM; KMO enzyme from mouse liver mitochondria; read-out: INH.Mouse @ 10 μM
quantity: inhibition at 10 µM (%)
Expressed in %, but write only the number.

Answer briefly: inhibition at 10 µM recorded on KMO mouse enzyme (Mus musculus) for "NC(=O)c1cc(-c2cccc(Cl)c2)ncn1"
77.5

Answer briefly: inhibition at 10 µM recorded on KMO mouse enzyme (Mus musculus) for "O=C(c1cc(-c2cccc(Cl)c2)ncn1)N1CC[C@@H](O)C1"
83.9

Answer briefly: inhibition at 10 µM recorded on KMO mouse enzyme (Mus musculus) for "O=C(c1cc(-c2cccc(Cl)c2)ncn1)N1CCC(O)CC1"
100

Answer briefly: inhibition at 10 µM recorded on KMO mouse enzyme (Mus musculus) for "COc1cncc(NC(=O)c2cc(-c3cccc(Cl)c3)ccn2)c1"
53.8

Answer briefly: inhibition at 10 µM recorded on KMO mouse enzyme (Mus musculus) for "COC(=O)c1cc(-c2ccc(F)c(Cl)c2)ncn1"
100

###

Measured inhibition at 10 µM, listed per entry.
target: KMO mouse enzyme (Mus musculus, UniProt Q91WN4); construct: KMO enzyme prepared at Evotec from mouse liver (4-6 weeks old) via mitochondria isolation; from tissue; host or cells: mouse liver (4-6 weeks old), mitochondria isolation, prepared at Evotec; experiment: KMO mouse enzyme assay: L-Kynurenine hydroxylation to 3-Hydroxy-Kynurenine monitored by LC/MS (MRM); format: biochemical; conditions: compound at 10 μM; KMO enzyme from mouse liver mitochondria; read-out: INH.Mouse @ 10 μM
Sequence (Q91WN4 whole entry): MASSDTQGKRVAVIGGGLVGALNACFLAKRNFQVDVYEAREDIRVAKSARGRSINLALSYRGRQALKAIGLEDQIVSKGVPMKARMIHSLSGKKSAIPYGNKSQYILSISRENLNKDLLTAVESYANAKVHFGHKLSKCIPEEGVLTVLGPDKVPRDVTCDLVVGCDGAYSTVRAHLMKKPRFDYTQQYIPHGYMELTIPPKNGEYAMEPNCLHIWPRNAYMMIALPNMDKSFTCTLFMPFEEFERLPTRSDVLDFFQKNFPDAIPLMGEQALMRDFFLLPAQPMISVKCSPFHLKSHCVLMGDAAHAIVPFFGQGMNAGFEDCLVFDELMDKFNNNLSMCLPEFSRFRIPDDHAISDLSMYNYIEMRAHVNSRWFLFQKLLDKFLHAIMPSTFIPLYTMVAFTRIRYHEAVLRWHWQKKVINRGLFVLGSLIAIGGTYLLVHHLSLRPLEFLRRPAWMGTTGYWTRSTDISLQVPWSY
Expressed in %, but write only the number.

Previously resolved entries follow.
[
  {
    "input-smiles": "C[C@@H](NC(=O)c1cc(-c2cccc(Cl)c2)ncn1)c1ccccc1",
    "number": 99.2
  },
  {
    "input-smiles": "O=C(Nc1nncs1)c1cc(-c2ccc(Cl)c(Cl)c2)ncn1",
    "number": 100
  },
  {
    "input-smiles": "Cn1cc(NC(=O)c2cc(-c3cccc(Cl)c3)ncn2)cn1",
    "number": 100
  }
]

Entry "O=C(c1cc(-c2ccc(Cl)c(Cl)c2)ncn1)N1CCc2ccccc21" needs its inhibition at 10 µM filled in; supply it.
100

Entry "O=C(c1cc(-c2cccc(Cl)c2)ncn1)N1Cc2ccccc2C1" needs its inhibition at 10 µM filled in; supply it.
100

Entry "COC(=O)c1cc(-c2cccc(Cl)c2)ncn1" needs its inhibition at 10 µM filled in; supply it.
106

Entry "Cn1cc(NC(=O)c2cc(-c3ccc(Cl)c(Cl)c3)ncn2)cn1" needs its inhibition at 10 µM filled in; supply it.
100

Entry "O=C(c1cc(-c2ccc(Cl)c(Cl)c2)ncn1)N1CCCc2ccccc21" needs its inhibition at 10 µM filled in; supply it.
92.6

Entry "C[C@@H](O)CNC(=O)c1cc(-c2cccc(Cl)c2)ncn1" needs its inhibition at 10 µM filled in; supply it.
74.3
